Provenance of the data: the RNAGym collection of RNA variant scans (doi:10.1101/gr.219683.116)

B1: mRNA-splicing (parent)
chain: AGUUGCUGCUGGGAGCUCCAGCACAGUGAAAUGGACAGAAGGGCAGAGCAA

variants of: B1; test: exon inclusion enrichment index; higher = more inclusion; WT1 exon 5 minigene, HEK293
Assign condition met whenever exon inclusion enrichment index does not fall below 0.05; assign condition not met whenever it does.

seq	class
AGUUCUUCUACGGAGCUCCAGCACAGUGAAAUGGACAGAAGGGCAGAGCAA	condition met
AGUUCUUCUCGGGCCCUCCAGCACAGUGAAAUGGACAGAAGGGCAGAGCAA	condition met
AGUUCACACAGGGAGCUCCAGCACAGUGAAAUGGACAGACUGGCAGAGCAA	condition met
AGUUCGCGCCGGGAGCUCCAGCACAGUGAAAUGGACAGAAGCUCAGAGCAA	condition met
AGUUCACUUAGGGAGCUCCAGCACAGUGAAAUGGACAGAAGGGCAGAGCAA	condition not met
AGUUAGGGAUGGGGGCUCCAGCACAGUGAAAUGGACAGAAGGGCAGAGCAA	condition not met
AGUUUCUUUUGGGAGCUCCUUCACAGUGAAAUGGACAGAAGGGCAGAGCAA	condition met
AGUUAUAUAUGGGAGCUCCAGCACAGUGAAAUGGACAGCGGGGCAGAGCAA	condition met
